Assay: Toxicokinetics: plasma DAC by LC-MS/MS after oral gavage
Format: in vivo, CD-1 mice
Details: female, CD-1, mouse, plasma, po, 0.2 mg/kg, Cmax, females; THU/DAC 167/0.2 mg/kg; Day 1
Measured property: Cmax (nM)
Use nM as the unit, but write only the number.

Sample `Nc1ncn([C@H]2C[C@H](O)[C@@H](CO)O2)c(=O)n1` — what was its Cmax?
1900

###

Assay: Toxicokinetics: plasma DAC by LC-MS/MS after oral gavage
Type: in vivo, CD-1 mice
Details: male, CD-1, mouse, plasma, po, 1 mg/kg, Cmax, males; THU/DAC 167/1.0 mg/kg; Day 58
Measured property: Cmax (µM)
Use µM as the unit, but write only the number.

Sample `Nc1ncn([C@H]2C[C@H](O)[C@@H](CO)O2)c(=O)n1` — what was its Cmax?
4.74
